Recorded values, source patent US20230407373A1.

System: SARS-CoV-2 gRNA
Format: binding
MEASUREMENT_PARAMETERS: […]; LC-MS/MS; Probe I sample (first 199 lines of Table 2)
Property: target (unweighted spectral count of the protein in the RNP capture); scope: individual molecules
PARAMETER: target (unweighted spectral count of the protein in the RNP capture)

- MOLECULE: "SRSF7 (protein, UniProt Q16629 1-238, looked up) Serine/arginine-rich splicing …: MSRYGRYGGETKVYVGNLGTGAGKGELERAFSYYGPLRTVWIARNPPGFAFVEFEDPRDAEDAVRGLDGKVICGSRVRVELSTGMPRRSRFDRPPARRPFDPNDRCYECGEKGHYAYDCHRYSRRRRSRSRSRSHSRSRGRRYSRSRSRSRGRRSRSASPRRSRSISLRRSRSASLRRSRSGSIKGSRYFQSPSRSRSRSRSISRPRSSRSKSRSPSPKRSRSPSGSPRRSASPERMD"
  OBSERVED: 21
- MOLECULE: "SRSF3 (protein, UniProt P84103 1-164, looked up) Serine/arginine-rich splicing …: MHRDSCPLDCKVYVGNLGNNGNKTELERAFGYYGPLRSVWVARNPPGFAFVEFEDPRDAADAVRELDGRTLCGCRVRVELSNGEKRSRNRGPPPSWGRRPRDDYRRRSPPPRRRSPRRRSFSRSRSRSLSRDRRRERSLSRERNHKPSRSFSRSRSRSRSNERK"
  OBSERVED: 16
- MOLECULE: "MBNL1 (protein, UniProt Q9NR56 1-388, looked up) Muscleblind-like protein 1: MAVSVTPIRDTKWLTLEVCREFQRGTCSRPDTECKFAHPSKSCQVENGRVIACFDSLKGRCSRENCKYLHPPPHLKTQLEINGRNNLIQQKNMAMLAQQMQLANAMMPGAPLQPVPMFSVAPSLATNASAAAFNPYLGPVSPSLVPAEILPTAPMLVTGNPGVPVPAAAAAAAQKLMRTDRLEVCREYQRGNCNRGENDCRFAHPADSTMIDTNDNTVTVCMDYIKGRCSREKCKYFHPPAHLQAKIKAAQYQVNQAAAAQAAATAAAMTQSAVKSLKRPLEATFDLGIPQAVLPPLPKRPALEKTNGATAVFNTGIFQYQQALANMQLQQHTAFLPPVPMVHGATPATVSAATTSATSVPFAATATANQIPIISAEHLTSHKYVTQM"
  OBSERVED: 19
- MOLECULE: "SRSF9 (protein, UniProt Q13242 1-221, looked up) Serine/arginine-rich splicing …: MSGWADERGGEGDGRIYVGNLPTDVREKDLEDLFYKYGRIREIELKNRHGLVPFAFVRFEDPRDAEDAIYGRNGYDYGQCRLRVEFPRTYGGRGGWPRGGRNGPPTRRSDFRVLVSGLPPSGSWQDLKDHMREAGDVCYADVQKDGVGMVEYLRKEDMEYALRKLDDTKFRSHEGETSYIRVYPERSTSYGYSRSRSGSRGRDSPYQSRGSPHYFSPFRPY"
  OBSERVED: 6
- MOLECULE: "SRSF2 (protein, UniProt Q01130 2-221, looked up) Serine/arginine-rich splicing …: SYGRPPPDVEGMTSLKVDNLTYRTSPDTLRRVFEKYGRVGDVYIPRDRYTKESRGFAFVRFHDKRDAEDAMDAMDGAVLDGRELRVQMARYGRPPDSHHSRRGPPPRRYGGGGYGRRSRSPRRRRRSRSRSRSRSRSRSRSRYSRSKSRSRTRSRSRSTSKSRSARRSKSKSSSVSRSRSRSRSRSRSRSPPPVSKRESKSRSRSKSPPKSPEEEGAVSS"
  OBSERVED: 12
- MOLECULE: "PABPN1 (protein, UniProt Q86U42 2-306, looked up) Polyadenylate-binding protein …: AAAAAAAAAAGAAGGRGSGPGRRRHLVPGAGGEAGEGAPGGAGDYGNGLESEELEPEELLLEPEPEPEPEEEPPRPRAPPGAPGPGPGSGAPGSQEEEEEPGLVEGDPGDGAIEDPELEAIKARVREMEEEAEKLKELQNEVEKQMNMSPPPGNAGPVIMSIEEKMEADARSIYVGNVDYGATAEELEAHFHGCGSVNRVTILCDKFSGHPKGFAYIEFSDKESVRTSLALDESLFRGRQIKVIPKRTNRPGISTTDRGFPRARYRARTTNYNSSRSRFYSGFNSRPRGRVYRGRARATSWYSPY"
  OBSERVED: 12
- MOLECULE: "GRSF1 (protein, UniProt Q12849 118-480, looked up) G-rich sequence factor 1: SQESKTTYLEDLPPPPEYELAPSKLEEEVDDVFLIRAQGLPWSCTMEDVLNFFSDCRIRNGENGIHFLLNRDGKRRGDALIEMESEQDVQKALEKHRMYMGQRYVEVYEINNEDVDALMKSLQVKSSPVVNDGVVRLRGLPYSCNEKDIVDFFAGLNIVDITFVMDYRGRRKTGEAYVQFEEPEMANQALLKHREEIGNRYIEIFPSRRNEVRTHVGSYKGKKIASFPTAKYITEPEMVFEEHEVNEDIQPMTAFESEKEIELPKEVPEKLPEAADFGTTSSLHFVHMRGLPFQANAQDIINFFAPLKPVRITMEYSSSGKATGEADVHFETHEDAVAAMLKDRSHVHHRYIELFLNSCPKGK"
  OBSERVED: 14
- MOLECULE: "CIRBP: host protein, UniProt Q14011 (protein, UniProt Q14011 1-172, looked up) Cold-inducible RNA-binding …: MASDEGKLFVGGLSFDTNEQSLEQVFSKYGQISEVVVVKDRETQRSRGFGFVTFENIDDAKDAMMAMNGKSVDGRQIRVDQAGKSSDNRSRGYRGGSAGGRGFFRGGRGRGRGFSRGGGDRGYGGNRFESRSGGYGGSRDYYSSRSQSGGYSDRSSGGSYRDSYDSYATHNE"
  OBSERVED: 12
- MOLECULE: "RPUSD3 (protein, UniProt Q6P087 26-351, looked up) Mitochondrial mRNA …: LGVRPVPEDAGFGTEARHQRQPRGSCQRSGPLGDQPFAGLLPKNLSREELVDALRAAVVDRKGPLVTLNKPQGLPVTGKPGELTLFSVLPELSQSLGLREQELQVVRASGKESSGLVLLSSCPQTASRLQKYFTHARRAQRPTATYCAVTDGIPAASEGKIQAALKLEHIDGVNLTVPVKAPSRKDILEGVKKTLSHFRVVATGSGCALVQLQPLTVFSSQLQVHMVLQLCPVLGDHMYSARVGTVLGQRFLLPAENNKPQRQVLDEALLRRLHLTPSQAAQLPLHLHLHRLLLPGTRARDTPVELLAPLPPYFSRTLQCLGLRLQ"
  OBSERVED: 7
